Origin of measurements: patent US20240262812A1

# maps each entry to its IC50
assayed-system: mTRPA1 (Mus musculus, UniProt Q8BLA8)
Sequence (Q8BLA8 whole entry): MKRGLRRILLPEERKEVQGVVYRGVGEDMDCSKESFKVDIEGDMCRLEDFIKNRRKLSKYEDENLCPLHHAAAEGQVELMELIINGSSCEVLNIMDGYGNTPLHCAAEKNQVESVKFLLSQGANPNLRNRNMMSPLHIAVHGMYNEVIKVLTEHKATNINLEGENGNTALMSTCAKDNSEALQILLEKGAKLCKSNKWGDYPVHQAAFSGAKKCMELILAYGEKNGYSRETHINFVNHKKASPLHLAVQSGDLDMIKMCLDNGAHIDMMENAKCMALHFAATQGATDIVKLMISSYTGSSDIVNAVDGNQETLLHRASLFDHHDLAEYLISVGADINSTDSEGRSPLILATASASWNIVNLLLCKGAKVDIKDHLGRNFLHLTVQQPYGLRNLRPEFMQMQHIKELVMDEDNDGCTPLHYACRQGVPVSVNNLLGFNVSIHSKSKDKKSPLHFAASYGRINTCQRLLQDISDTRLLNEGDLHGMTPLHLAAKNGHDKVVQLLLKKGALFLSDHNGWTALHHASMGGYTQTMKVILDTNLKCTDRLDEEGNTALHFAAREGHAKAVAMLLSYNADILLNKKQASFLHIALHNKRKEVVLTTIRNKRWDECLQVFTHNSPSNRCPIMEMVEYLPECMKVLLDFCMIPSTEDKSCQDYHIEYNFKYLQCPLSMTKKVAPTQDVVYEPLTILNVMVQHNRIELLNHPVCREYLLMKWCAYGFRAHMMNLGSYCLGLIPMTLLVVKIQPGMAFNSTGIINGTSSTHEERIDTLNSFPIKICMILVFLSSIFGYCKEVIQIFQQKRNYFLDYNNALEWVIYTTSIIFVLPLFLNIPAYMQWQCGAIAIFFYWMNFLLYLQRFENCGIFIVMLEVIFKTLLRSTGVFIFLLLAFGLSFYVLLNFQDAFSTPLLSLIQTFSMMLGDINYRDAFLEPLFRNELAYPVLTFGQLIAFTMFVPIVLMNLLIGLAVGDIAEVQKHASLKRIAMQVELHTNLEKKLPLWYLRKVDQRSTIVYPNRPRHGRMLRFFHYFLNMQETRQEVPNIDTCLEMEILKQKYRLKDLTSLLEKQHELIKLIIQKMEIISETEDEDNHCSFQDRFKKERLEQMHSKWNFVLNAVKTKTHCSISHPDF
assay-info: IonWorks Barracuda (IWB) automated patch clamp, TRPA1 inhibitory activity
condition-label: HEK293 cells stably expressing mTRPA1, current induced by AITC, amplitude at +100 mV; read-out: IC50 (inhibition activity on TRPA1)

Solved entries:
compound: C[C@H]1CCCN1c1ccc(-c2csc(NC(=O)Cn3cnc4c3c(=O)n(C)c(=O)n4C)n2)cc1F [Compound of formula A, reference compound]
IC50: 50 to 100 µM

compound: CNCc1cc(NS(=O)(=O)c2ccccc2)cc(-c2ccco2)c1
IC50: 20 to 50 µM

compound: CNCc1ccc(-c2cnc[nH]2)c(NS(=O)(=O)c2ccccc2)c1
IC50: 10 to 20 µM

compound: NCc1ccc(-c2ccco2)c(NS(=O)(=O)c2ccsc2)c1
IC50: < 1 µM

compound: O=S(=O)(Nc1cc(CO)ccc1-c1ccco1)c1ccccc1
IC50: 20 to 50 µM

compound: O=S(=O)(Nc1cc(CNCC(F)(F)F)ccc1-c1ccco1)c1ccccc1 [IA-62]
IC50: 50 to 100 µM

IC50 measured on CNCc1ccc(-c2ccco2)c(NS(=O)(=O)c2cccnc2)c1 = 5 to 10 µM

IC50 measured on NC(c1ccccc1)c1ccc(NS(=O)(=O)c2ccccc2)c(-c2ccco2)c1 (centres unmarked) = 1 to 5 µM

IC50 measured on CCNCc1ccc(NS(=O)(=O)c2ccsc2)c(-c2ccco2)c1 = < 1 µM

IC50 measured on NCc1ccc(NS(=O)(=O)c2ccc(F)cc2)c(-c2ccco2)c1 = 1 to 5 µM

IC50 measured on O=S(=O)(Nc1ccc(CNC2CCC2)cc1-c1ccco1)c1ccsc1 = 1 to 5 µM

IC50 measured on CNCc1ccc(-c2nccs2)c(NS(=O)(=O)c2ccccc2)c1 = < 1 µM

IC50 measured on CNCc1ccc(-c2ccco2)c(NS(=O)(=O)c2ccc(F)cc2)c1 = 1 to 5 µM

IC50 measured on CNCc1ccc(-c2ccco2)c(NS(=O)(=O)c2ccc3ccccc3c2)c1 = 50 to 100 µM

IC50 measured on NCc1ccc(-c2cc[nH]n2)c(NS(=O)(=O)c2ccsc2)c1 = 1 to 5 µM

====

assayed-system: mTRPA1 (Mus musculus)
Construct: expressed in transfected cells
assay-info: IonWorks Barracuda (IWB) automated patch clamp, TRPA1 inhibitory activity
Format: cell-based
condition-label: HEK293 cells stably expressing mTRPA1, current induced by AITC, amplitude at +100 mV; read-out: IC50 (inhibition activity on TRPA1)
metric-name: IC50

Solved entries:
compound: O=S(=O)(Nc1ccc(CNC2CC2)cc1-c1ccco1)c1ccsc1 [IA-33]
IC50: 1 to 5 µM
--
compound: CNCc1ccc(-c2cc[nH]n2)c(NS(=O)(=O)c2ccccc2)c1 [IA-55]
IC50: < 1 µM

IC50 measured on CNCc1ccc(-c2ncc(C)s2)c(NS(=O)(=O)c2ccccc2)c1 [IA-59] = 5 to 10 µM

IC50 measured on CNCc1ccc(-c2cccs2)c(NS(=O)(=O)c2cccs2)c1 [IA-47] = 1 to 5 µM

IC50 measured on CNCc1ccc(NS(=O)(=O)c2ccccc2)cc1-c1ccco1 [IA-36] = 20 to 50 µM

IC50 measured on CNCc1ccc(N(C)S(=O)(=O)c2ccsc2)c(-c2ccco2)c1 [IB] = < 1 µM

IC50 measured on CNCc1ccc(-c2ccoc2)c(NS(=O)(=O)c2ccccc2)c1 [IA-42] = 1 to 5 µM

IC50 measured on CC(=O)NCc1ccc(NS(=O)(=O)c2ccsc2)c(-c2ccco2)c1 [IE] = 20 to 50 µM

====

assayed-system: UniProt:Q8BLA8
assay-info: IonWorks Barracuda (IWB) automated patch clamp, TRPA1 inhibitory activity
condition-label: HEK293 cells stably expressing mTRPA1, current induced by AITC, amplitude at +100 mV; read-out: IC50 (inhibition activity on TRPA1)
pIC50: −log10 of the molar value.
# maps each entry to its pIC50

compound: CNCc1ccc(-c2ccco2)c(NS(=O)(=O)c2ccccc2F)c1 [IA-2]
assayed-system: UniProt:Q8BLA8
pIC50: 5.30 to 6.00

compound: CNCc1ccc(NS(=O)(=O)c2ccsc2)c(-c2ccco2)c1 [IA-30]
assayed-system: UniProt:Q8BLA8
pIC50: > 6.00

pIC50 measured on O=S(=O)(Nc1cc(CNCC(F)(F)F)ccc1-c1ccco1)c1ccccc1 [IA-25] = 4.30 to 4.70
